test target: UniProt P14780
Sequence (P14780 94-707, species assumed): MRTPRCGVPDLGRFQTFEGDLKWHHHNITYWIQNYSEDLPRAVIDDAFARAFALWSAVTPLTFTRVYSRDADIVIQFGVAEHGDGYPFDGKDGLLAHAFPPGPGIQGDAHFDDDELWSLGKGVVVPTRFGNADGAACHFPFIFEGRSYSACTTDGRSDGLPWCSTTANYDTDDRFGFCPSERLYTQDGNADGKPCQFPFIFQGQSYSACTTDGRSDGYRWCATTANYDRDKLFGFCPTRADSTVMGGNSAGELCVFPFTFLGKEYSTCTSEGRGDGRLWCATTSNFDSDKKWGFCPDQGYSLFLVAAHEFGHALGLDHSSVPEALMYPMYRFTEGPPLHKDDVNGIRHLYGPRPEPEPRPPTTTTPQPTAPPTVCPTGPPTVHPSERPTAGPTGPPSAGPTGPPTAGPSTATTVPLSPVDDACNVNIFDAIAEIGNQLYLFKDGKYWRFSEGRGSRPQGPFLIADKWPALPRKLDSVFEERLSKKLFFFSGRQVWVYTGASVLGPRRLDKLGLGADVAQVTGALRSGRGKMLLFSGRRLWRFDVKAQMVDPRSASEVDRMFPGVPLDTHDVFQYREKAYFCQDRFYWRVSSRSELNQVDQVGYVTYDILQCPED
pIC50: −log10 of the molar value.

| molecule | pIC50 |
| --- | --- |
| O=C1NC[C@H](Cc2ccccc2)N(C[C@@H]2CCCN2C[C@@H](CC2CCCCC2)N2C[C@H](Cc3ccccc3)N(CCc3ccccc3)C(=O)C2=O)C1=O [Compound 21] | < 4.00 |
